target.or.system: T1, human GDF15 (hGDF15), mature, wild-type (human, UniProt Q99988 197-308)
T1 construct: Bought recombinant protein: R&D Systems 957-GD-025/CF in most assays, 9279-GD in the crystal and the GDF15/GFRAL/RET assay; It was biotinylated in the GFRAL assay; also called hGDF15 (WT); rhGDF15
T1 sequence: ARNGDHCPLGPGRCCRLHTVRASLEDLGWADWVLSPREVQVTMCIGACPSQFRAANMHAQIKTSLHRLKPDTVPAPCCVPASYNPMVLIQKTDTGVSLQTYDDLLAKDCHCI
procedure.text: ELISA, hGDF15 immobilised; binding at 5 ng/mL antibody, HuMAB2 = 100
measurement.kind: fold change in binding strength compared to HuMAB2

binder="H120F-L7 (antibody, human IgG1, kappa, V domains shown, In the label, H means the H chain; Tested as culture supernatant; also called HuMAB2 variant H120F) VH: QVQLQESGPGLVKPSETLSLTCTVSGFSINSDCYWIWIRQPPGKGLEYIGYTFYSGITYYNPSLASRTTISRDTSKNQFSLKLSSVTAADTAVYYCARDCDFAMDYWGQGTLVTVSS VL: DIQMTQSPSSLSASVGDRVTITCRASQDISNYLNWYQQKPGKAVKLLIHYTSTLHSGVPSRFSGSGSGTDYTLTISSLQPEDFATYFCQQGNTLPWTFGQGTKLEIKR" result="~1.5 fold"
binder="H3-L48K (antibody, human IgG1, kappa, V domains shown, In the label, L means the L chain; Tested as culture supernatant; also called HuMAB2 variant L48K) VH: QVQLQESGPGLVKPSETLSLTCTVSGFSINSDCYWIWIRQPPGKGLEYIGYTFYSGITYYNPSLASRTTISRDTSKNQFSLKLSSVTAADTAVYYCARDCDYAMDYWGQGTLVTVSS VL: DIQMTQSPSSLSASVGDRVTITCRASQKISNYLNWYQQKPGKAVKLLIHYTSTLHSGVPSRFSGSGSGTDYTLTISSLQPEDFATYFCQQGNTLPWTFGQGTKLEIKR" result="~1.5 fold"
binder="H3-L112D (antibody, human IgG1, kappa, V domains shown, In the label, L means the L chain; Tested as culture supernatant; also called HuMAB2 variant L112D) VH: QVQLQESGPGLVKPSETLSLTCTVSGFSINSDCYWIWIRQPPGKGLEYIGYTFYSGITYYNPSLASRTTISRDTSKNQFSLKLSSVTAADTAVYYCARDCDYAMDYWGQGTLVTVSS VL: DIQMTQSPSSLSASVGDRVTITCRASQDISNYLNWYQQKPGKAVKLLIHYTSTLHSGVPSRFSGSGSGTDYTLTISSLQPEDFATYFCQQGDTLPWTFGQGTKLEIKR" result="~1.5 fold"
